Test system: Sonic hedgehog protein (Shh)
assay_details: small-molecule binders of Shh protein, primary screen, biochemical, small-molecule microarray, 635/667 nm fluorescence (AID 1151);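 further: Shh protein binding to compounds spotted on small-molecule microarray slides; score combines spot fluorescence intensity with signal-to-noise across triplicate slides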
condition_context: small-molecule microarray binding, 635 nm fluorescence; higher = more signal
Kindly supply the reported composite z-score values for the records listed here.
Answer with a bare number; do not write a unit.

Which composite z-score reading was recorded for the molecule `COC(=O)[C@@]1(Cc2ccc(OC)cc2)[C@H]2c3cc(C(=O)N4CCCC4)n(Cc4ccc(OC(F)(F)F)cc4)c3C[C@H]2CN1C(=O)c1ccccc1` ? -1.05

Similarly, `CN(C)C(=O)[C@]1(CCS(=O)(=O)c2ccccc2)N=C(c2ccc(OCCCO)cc2)O[C@@H]1c1ccccc1` ? -0.707

And then `COc1ccc([Si](C)(C)[C@@H]2[C@@H](CC(=O)N3Cc4ccccc4C[C@H]3CO)O[C@]3(C(=O)N(Cc4ccc(N5CCC5=O)cc4)c4ccccc43)[C@H]2C)cc1` , what is it? 1.74

Same read-out for `COC(=O)[C@@]1(Cc2ccc(F)cc2)[C@H]2c3cc(C(=O)N(C)C)n(Cc4ccc(O)c(OC)c4)c3C[C@H]2CN1C(=O)c1ccccc1` ? -0.556

Consider next the molecule `COCCOC(=O)N1C(=O)[C@@]2(c3cc(C#CCCO)ccc31)[C@H](C(N)=O)[C@H]1C(=O)O[C@H](c3ccccc3)[C@H](c3ccccc3)N1[C@@H]2c1ccc(OCCO)cc1` in the same way. 1.36

Try `COc1ccc([Si](C)(C)[C@H]2[C@H](CCO)O[C@@]3(C(=O)N(Cc4ccccc4)c4ccc(N5C(=O)c6ccccc6Oc6ccccc65)cc43)[C@@H]2C)cc1` next. 0.534

====

assay_details: MM1S cell viability effects, profiling panel, calcein-AM fluorescence, 48 h, basal (AID 1165);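 further: viability of MM1S multiple myeloma cells under basal unstimulated conditions; test concentration not given here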
condition_context: higher = more signal
# if value of z-score reaches -2, tag class 1; if it stays below, tag class 0

Hello, I need to know if `CCCNC(=O)[C@@]1(Sc2ccc(C)cc2)CC(=O)N(C2CCCCC2)[C@@H]1c1ccc(CO)cc1I` has measured z-score not below -2. Thanks! class 0

// same read-out, input: CCN(CC)c1ccc(N2CC=CC34O[C@@H]5/C=C\CCC(C)OC(=O)C5[C@H]3C(=O)N(C(C)CO)[C@@H]4C2=O)cc1 (stereo partly drawn) class 1

# iterate: `C=C(C(=O)CC[C@@H](OC(=O)c1ccccc1-c1ccccc1C(=O)O)c1ccccc1OCCO)C(C)C` class 0

// same read-out, input: `NC(=O)[C@@H]1[C@H]2C(=O)O[C@H](c3ccccc3)[C@H](c3ccccc3)N2[C@H](c2ccc(OCCO)cc2)[C@@]12C(=O)Nc1ccc(C#CCCO)cc12` class 1

Now this one: `Cc1ccc(S[C@]2(C(=O)NC(C)C)CC(=O)N(Cc3ccccc3Cl)[C@@H]2c2ccc(CO)cc2)cc1` class 1

Field entry: `CCCCC=C[C@@H](NC(=O)c1ccccc1)c1ccccc1` class 1

Now this one: `CCOC(=O)C1=C[C@@H](C(C)(C)C)N(S(=O)(=O)c2ccc(C)cc2)[C@H]1c1ccccc1` class 0

`Cc1ccc(F)cc1S(=O)(=O)N[C@@H]1CCN(Cc2cccc3[nH]ccc23)C1` , same question. class 1

====

Task for the reader: assign each of the following molecules its reported composite z-score.
assay_details: binders of probe aFGF10 on microarray, primary screen, stem cell growth factor project, biochemical, small-molecule microarray, fluorescence 635/667 (AID 1071);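 further: score merges 667 nm spot intensity and signal to noise from triplicate slides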
condition_context: higher = more signal
In your answer, state the number alone without any accompanying words.

Field request: composite z-score | item: `CCOC(=O)C[C@H]1[C@H](OC(=O)c2cc3ccccc3oc2=O)[C@@H](NC(=O)c2ccc3ccccc3c2)c2cc(OCCCO)ccc2N1C(=O)Cc1ccc(OC)cc1` 0.531

Same read-out for `COc1ccc(NC(=O)O[C@H]2[C@@H]3OC(=O)[C@H](Cc4cccc(Br)c4)C/C=C/C[C@@H](Cc4cccc(Br)c4)C(=O)O[C@H]3[C@@H](OC)O[C@@H]2CO)cc1` ? 0.579

And what about the molecule `O=C1C[C@@](C(=O)NCC(F)(F)F)(c2ccc([N+](=O)[O-])cc2)[C@@H](c2ccc(CO)cc2)N1CC12CC3CC(CC(C3)C1)C2` ? 1.15

Try the molecule `COC(=O)C(CC#Cc1ccc2c(c1)[C@]1(C(=O)N2)[C@H](c2ccc(O)cc2)N2[C@H](c3ccccc3)[C@H](c3ccccc3)OC(=O)[C@H]2[C@@H]1C(=O)N1CCCCCCC1)C(=O)OC` 0.156

Check `COCCOC(=O)N1C(=O)[C@@]2(c3cc(C#CCCO)ccc31)[C@H](c1ccccc1OCCO)N1[C@H](c3ccccc3)[C@H](c3ccccc3)OC(=O)[C@H]1[C@@H]2C(=O)N1CCCCCCC1` too. 0.413

Can you check `O=C1c2ccccc2[C@](Cc2ccccc2I)(C(=O)NC2CC2)[C@H](c2ccc(CO)cc2)N1Cc1ccccc1C(F)(F)F` next? 0.433

Same question, `CN(C)CCCNC(=O)[C@@H]1c2ccccc2C(=O)N(C2CCCCC2)[C@H]1c1ccc(CO)cc1` this time 0.577

What about this molecule? CC(C)C[C@@H]1NC(=O)[C@@]23C(=O)N[C@@H](Cc4ccccc4)C2[C@H](C)[C@@]2(C)O[C@H]2C3/C=C/C/C=C\CNC(=O)[C@@H](C)NC1=O (some centres undefined) 0.392

Now this one: `[N-]=[N+]=Nc1ccccc1C[C@]1(C(=O)O)N=C(c2ccc(OCCCO)cc2)O[C@H]1c1ccccc1` 0.743

Another: `C=C(CCCC)C(=O)CC[C@@H](OC(=O)c1cccnc1)c1ccc(OCCO)cc1` 0.681

Another molecule to look at: `C[C@]1(C(=O)NCC(F)(F)F)c2ccccc2C(=O)N(Cc2ccccc2)[C@H]1c1ccc(CO)cc1` -0.358

Entry Cc1ccccc1C(O)C1C=CC2C(=O)NC(=O)C2N1Nc1ccc(Cl)cc1Cl (centres undefined) please 0.5

Try this molecule next: `CC(C)C[C@@H]1NC(=O)[C@@H]2C[C@H](C(=O)NCCCCCC[N+](C)(C)C)[C@H](c3cccc(OCCO)c3)N2C1=O` -0.289

Next entry: `COCCCNC(=O)[C@@]1(Sc2ccc(C)cc2)CC(=O)N(Cc2ccccc2Cl)[C@@H]1c1ccc(CO)cc1I` -0.304

====

assay_details: small-molecule microarray binders of probe aLefty2, primary screen, biochemical, biotinylated probe, 635/667 nm fluorescence (AID 1094);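 further: score merges spot fluorescence near 667 nm with spot signal-to-noise ratio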
condition_context: higher = more signal
Param threshold (-0.1) applies to composite z-score; output true when value >= threshold, false when value < threshold.

In plain terms: is recorded composite z-score at least -0.1 for `COCCCNC(=O)[C@@]1(Sc2ccc(C)cc2)CC(=O)N(Cc2ccccc2Cl)[C@@H]1c1ccc(CO)cc1I` ? true

Cool, now CCCCCN1CC=CC23O[C@@H]4C=CCOC(=O)[C@@H]4[C@H]2C(=O)N(CCO)[C@@H]3C1=O (stereo partly specified) false

Entry `CCOC(=O)C=Cc1cc(F)ccc1O` please true

Next molecule up: O=C1C2C=CC(C(O)C=Cc3ccc([N+](=O)[O-])cc3)N(Nc3ccccc3)C2C(=O)N1c1ccccc1 (stereo unspecified) true

Now the same for `CN1C(=O)[C@@]2(Cc3ccccc3)N=C(c3ccc(OCCCO)cc3)O[C@H]2c2ccccc21` true

Next up: `COCCCNC(=O)[C@@]1(Sc2ccc(C)cc2)CC(=O)N(C(C)C)[C@@H]1c1ccc(CO)cc1I` true

Note, next up: `COc1ccc(C#Cc2ccc3c(c2)[C@]2(C(=O)N3)[C@H](c3ccc(OCCO)cc3)N3[C@H](c4ccccc4)[C@H](c4ccccc4)OC(=O)[C@H]3[C@@H]2C(=O)N2CCc3cc(OC)c(OC)cc3C2)cc1` false

One more molecule: `O=C(O)[C@H]1C[C@H]2C(=O)N[C@@H](Cc3ccccc3)C(=O)N2[C@H]1c1cccc(OCCO)c1` true

Item: CC=CC(O)C1C=CC2C(=O)NC(=O)C2N1Nc1ccccn1 (stereo unspecified) true

Likewise for CCOC(=O)C1=CCC(c2ccco2)N(S(=O)(=O)c2ccc(C)cc2)C1 (stereo unspecified) ? true

What do we get for `O=C1O[C@H](c2ccccc2)[C@H](c2ccccc2)N2[C@H]1[C@@H](C(=O)O)[C@]1(C(=O)Nc3ccc(C#CC4(O)CCCCCC4)cc31)[C@H]2c1ccc(O)cc1` ? false

Would you kindly repeat that for `O=C1N(CCS(=O)(=O)c2ccccc2)Cc2ccccc2[C@@H]2OC(c3ccc(OCCCO)cc3)=N[C@]12CCS(=O)(=O)c1ccccc1` ? true

Repeat for the following molecule: CC(C)C[C@@H]1NC(=O)CNC(=O)[C@@]23C(=O)N[C@@H](Cc4ccccc4)C2[C@H](C)[C@@]2(C)O[C@H]2C3/C=C/C/C=C\CNC1=O (stereo partly specified) false

Input `COCC1=C2[C@@H](CCc3ccccc3)OB(O)C[C@@H]2[C@@H]2C(=O)N(C)C(=O)[C@@H]2C1` true

How about this molecule: `O=C1C[C@@](C(=O)NCc2ccccc2)(c2ccc([N+](=O)[O-])cc2)[C@@H](c2ccc(CO)cc2I)N1CC12CC3CC(CC(C3)C1)C2` true

Proceed to CC(C)CCC[C@@H](C)[C@H]1CC[C@@]2(C)C3=C(CC[C@]12C)[C@@]1(C)CC[C@H](OC(=O)c2ccccc2)C(C)(C)C1CC3 (stereo partly specified) false

Cool, now `[N-]=[N+]=NCc1ccccc1[C@@H]1OC(c2ccc(OCCCO)cc2)=N[C@]1(Cc1ccccc1N=[N+]=[N-])C(=O)NCCN1CCOCC1` true

Next record, please: CC(C)N1CC=CC23O[C@@H]4/C=C\CCCOC(=O)C4[C@H]2C(=O)N(CCCCCCO)[C@@H]3C1=O (stereo partly specified) false

Also `C=CCNC(=O)[C@@H]1[C@H]2C(=O)O[C@H](c3ccccc3)[C@H](c3ccccc3)N2[C@H](c2ccc(OCCO)cc2)[C@@]12C(=O)N(C(=O)OCCOC)c1ccc(C#CCCO)cc12` ? true

Next record, please: `CC(C)[Si]1(C(C)C)OCc2cc(-c3ccc(-c4ccc(Cl)c(Cl)c4)o3)nc(CCc3ccccc3)c21` false

Try this molecule too: `Cc1nc2cc(Br)ccc2c(=O)n1Cc1cccc(O)c1` true

Now give it for `CCOC(=O)C[C@H]1[C@H](OC(=O)c2ccc(-c3ccccc3)cc2)[C@@H](NC(=O)Cc2ccc(OC)cc2)c2cc(OCCCO)ccc2N1C(=O)Cc1ccc(OC)cc1` too. true

Again, but for `Cc1ccc(S[C@]2(C(=O)NCC(C)C)CC(=O)N(C3Cc4ccccc4C3)[C@@H]2c2ccc(CO)cc2I)cc1` true

Subsequent entry: NC(=O)N1C(=O)C2C(C1=O)C1C=C(CCCO)C2C(C2CC2)N1Cc1cccc(OC(F)(F)F)c1 (stereo unspecified) false

Another molecule: `CC(C)C[C@@H]1NC(=O)[C@@H]2C[C@H](C(=O)NCCCCCC[N+](C)(C)C)[C@H](c3cccc(OCCO)c3)N2C1=O` false

Another molecule to check: `O=c1cccc(-c2ccc(F)cc2)o1` true

Can you check `[N-]=[N+]=NC[C@H](Cc1ccccc1)NC(=O)c1ccccc1` next? true

Again, but for `Cc1cccc([C@H]2C[C@H]3C(Br)=C[C@@H]2C(=O)[C@]32CO2)c1` true

Thanks! And O=C1C2C=CC(C(O)c3cc(C(F)(F)F)cc(C(F)(F)F)c3)N(Nc3ccccc3F)C2C(=O)N1c1ccccc1 (stereo unspecified) ? true

What about `COCCOC(=O)N1C(=O)[C@@]2(c3cc(C#Cc4ccc(OC)cc4)ccc31)[C@H](c1ccc(OCCO)cc1)N1[C@H](c3ccccc3)[C@H](c3ccccc3)OC(=O)[C@H]1[C@@H]2C(=O)Nc1nc2ccccc2s1` ? true

Source of measurements: PubChem BioAssay
